The values you see were collected from PubChem BioAssay (NCI).

Tested on: HCT-116 colon
Protocol Description: NCI-60 one-dose screen, 48 h (100 = growth as untreated, 0 = no growth, -100 = all killed)
Condition Summary: 10 µM
Compounds without any hit were thinned out: in the full panel of roughly 83,000, 20% have a hit.
Result Type: growth (%)
Numbers only, in %.

Examples from the recorded data:
>>> numeric_result("COc1ccccc1N1CCN(C(=S)Nc2ccccc2)CC1")
103
>>> numeric_result("Cc1cc(N)c(S(=O)(=O)O)c(N)c1")
91.9
>>> numeric_result("CCC(C)(O)c1ccc(C)cc1 (stereo not drawn)")
108
>>> numeric_result("O=S(=O)(O)c1cc(O)c2c(N=Cc3ccccc3O)c(S(=O)(=O)O)ccc2c1")
98.4
>>> numeric_result("OC1CCCc2ccccc21 (stereo not drawn)")
111
>>> numeric_result("CCCC(=O)Nc1ccc2c(c1)CN1C(=O)c3ccccc3C1=N2")
102
>>> numeric_result("Nc1ccc(N)c([N+](=O)[O-])c1")
99.6
>>> numeric_result("Cc1ccc(C(=O)c2ccccc2)c(C)c1")
94.8

Would you mind giving growth for every compound in the list below?
1. CCC(C)(C)C1CCC(O)CC1 (stereo not drawn)
2. Cc1ccc(Cl)cc1N1C(=O)CC(Sc2ccccc2N)C1=O (stereo not drawn)
3. CC(C)(C)c1cc(O)c(C(C)(C)C)cc1O

Result block:
[98.9, 111, 86.6]

Quick batch: growth for everything below.
1. CCCCC1(CC)COC(CCC)OC1 (stereo not drawn)
2. Oc1ccc2c(c1)OCC1(O)Cc3cc(O)c(O)cc3C21 (stereo not drawn)

Result block:
1: 98.8; 2: 84.1

###

Test system: SNB-19 CNS
Protocol Description: NCI-60 one-dose screen, 48 h (100 = growth as untreated, 0 = no growth, -100 = all killed)
Condition Summary: 10 µM
The panel holds about 83,000 compounds, 20% with a hit somewhere; the sample as a whole holds those more often.
Result Type: growth (%)
Answers are plain numbers, in %.

// input: 2 molecules below; output: growth for each
1. O=C(Nc1ccccc1)OCCc1ccccc1
2. CCn1c(=O)n(C)c2c(=O)n(C)c(=O)n(C)c21

Result block:
1: 101; 2: 102

Hey, quick one: what's growth for each of these?
1. O=C(O)CCCc1ccccc1
2. Cc1ccc(/C(C#N)=C/c2ccc3c(c2)OCO3)cc1

Result block:
[105, 88.4]

For each of the molecules below, state growth.
1. CCS(=O)(=O)c1cc(=O)[nH]c(=O)[nH]1
2. CCCCCCCCCCC1CO1 (stereo not drawn)
3. COc1cc(C(N)=O)cc(OC)c1OC
4. Nc1ccc(N=Nc2ccc(S(=O)(=O)O)cc2)c2ccccc12

Result block:
1: 102; 2: 103; 3: 99.2; 4: 106

Provide growth values for the following items, in order.
1. COc1cc2c3c(n(C)c(=O)c2cc1OC)-c1cc2c(cc1C3=O)OCO2
2. Oc1ccc(Cc2ccccc2)c2cccnc12
3. CC1(C(N)=O)CCC(C(=O)O)C1(C)C (stereo not drawn)
4. CCCCCCCCO

Result block:
[54.6, 19.6, 99, 103]

Each molecule below has a recorded value; state its growth.
1. CC1CCCC(CC(N)=O)CC1 (stereo not drawn)
2. Oc1ccc(N=Nc2ccc(Br)cc2)c(O)c1
3. CCc1nn(Cc2ccccc2)c2nc(C)c(CCc3ccccc3)c(Cl)c12
4. C1CNC(C2=NCCN2)=N1
5. NC(=S)CN1CCOCC1
6. CCCC[P+](c1ccccc1)(c1ccccc1)c1ccccc1
7. COC(=O)c1cccc(Br)c1

Result block:
110
38.5
80.2
112
104
55.3
107

Provide each entry's growth from the list below.
1. CCOc1ccc2[nH]c(=S)sc2c1
2. CCCCC/C=N/Nc1nc(C)cc(=O)[nH]1

Result block:
1. 103
2. 108

Quick batch: growth for everything below.
1. CCCCC1C(=O)N(c2ccccc2)N(c2ccccc2)C1=O
2. COc1cc([C@@H]2c3cc4c(cc3[C@H](O)[C@H]3COC(=O)[C@H]23)OCO4)cc(OC)c1OC
3. CC(=O)c1c[nH]c2ccccc12
4. O=C(O)c1ccnc(Br)c1
5. CCCCOC(OCCCC)c1ccccc1
6. C/C(=N\NC(=O)c1ccccc1N)c1ccccc1O
7. C/C(=C\c1cc(Cl)ccc1OCC(=O)O)[N+](=O)[O-]

Result block:
1: 102; 2: 34.7; 3: 105; 4: 103; 5: 95.4; 6: 56.6; 7: 117
